Examples of compounds with documented IC50 follow.
Test system: NCI-H460 cells
Protocol notes: Cancer cell growth inhibition experiment (MTT assay)
Assay type: cell-based
Study conditions: Homo sapiens, lung cancer cell line, compounds 48 hours, cell viability by MTT assay

Solved entries:
| Smiles repr | Recorded value |
| --- | --- |
| O=C(C[C@H]1NCCC[C@@H]1O)Cn1c(CO)nc2ccc(-c3ccccc3)cc21 | 3 to 10 µM |
| O=C(C[C@H]1NCCC[C@@H]1O)Cn1cnc2ccc(-c3cccc(Cl)c3)cc21 | ≤ 3 µM |
| O=C(C[C@H]1NCCC[C@@H]1O)Cn1cnc2ccc(-c3cc(Cl)cc(Cl)c3)cc21 | 3 to 10 µM |

response.value for "COc1cccc(-c2ccc3c(ncn3CC(=O)C[C@H]3NCCC[C@@H]3O)c2C)c1" (field: IC50) = ≥ 10 µM

response.value for "O=C(C[C@H]1NCCC[C@@H]1O)Cn1cnc2ccc(-c3cccc(F)c3)nc21" (field: IC50) = ≤ 3 µM

response.value for "O=C(C[C@H]1NCCC[C@@H]1O)Cn1cnc2ccc(-c3ccc(=O)[nH]c3)cc21" (field: IC50) = ≥ 10 µM

response.value for "O=C(C[C@H]1NCCC[C@@H]1O)Cn1cnc2cc(-c3ccccc3)ccc21" (field: IC50) = ≥ 10 µM

response.value for "O=C(C[C@H]1NCCC[C@@H]1O)Cn1c(CO)nc2ccc(-c3ccccc3F)cc21" (field: IC50) = 3 to 10 µM
